Target: T1, interleukin-23 receptor (IL-23R), Q5VWK5
T1 chain: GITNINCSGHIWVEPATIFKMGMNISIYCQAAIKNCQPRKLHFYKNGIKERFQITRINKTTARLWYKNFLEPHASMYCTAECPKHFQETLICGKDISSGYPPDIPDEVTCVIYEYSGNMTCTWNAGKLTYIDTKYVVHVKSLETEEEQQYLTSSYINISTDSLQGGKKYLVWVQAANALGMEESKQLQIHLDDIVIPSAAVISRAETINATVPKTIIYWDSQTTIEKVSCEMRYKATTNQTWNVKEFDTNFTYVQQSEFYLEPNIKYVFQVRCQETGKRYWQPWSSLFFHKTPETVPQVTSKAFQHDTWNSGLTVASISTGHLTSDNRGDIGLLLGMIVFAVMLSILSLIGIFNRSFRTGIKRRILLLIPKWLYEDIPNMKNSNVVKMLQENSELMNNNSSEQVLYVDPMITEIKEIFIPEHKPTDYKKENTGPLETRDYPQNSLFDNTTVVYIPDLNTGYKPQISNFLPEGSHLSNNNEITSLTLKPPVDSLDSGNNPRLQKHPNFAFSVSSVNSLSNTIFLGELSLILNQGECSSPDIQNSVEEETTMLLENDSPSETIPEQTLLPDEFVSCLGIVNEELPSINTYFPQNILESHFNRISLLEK
Test: cell-based or functional assay
Positions of bridges follow the written chain, without caps; N, C: chain ends. Non-standard residues stand in square brackets, D forms with d. No end group written: not given here. 2Nal(6-OH) = N[C@@H](Cc1ccc2cc(O)ccc2c1)C(=O)O; Trp(7-Me) = Cc1cccc2c(C[C@H](N)C(=O)O)c[nH]c12; AEF = NCCOc1ccc(C[C@H](N)C(=O)O)cc1; 3Pal = N[C@@H](Cc1cccnc1)C(=O)O; NMeK = CN[C@@H](CCCCN)C(=O)O; Pen = CC(C)(S)[C@H](N)C(=O)O; lipid = not defined here; Thp = NC1(C(=O)O)CCOCC1; Sar = CNCC(=O)O
Consider the following binders and their measured PBMC pSTAT3 IC50 readings.

The binder identified as R[Pen]NT[Trp(7-Me)]K(Ac)[Pen][AEF][2Nal(6-OH)][Thp]EN[3Pal][NMeK](lipid) (disulfide 2-7 (inferred); not fully specified; ends not checked) [SEQ ID NO: 279] registered its PBMC pSTAT3 IC50 at < 1 nM

The binder identified as R[Pen]KT[Trp(7-Me)]K(Ac)[Pen][2‑amino‑3‑(4-(2-aminoethoxy)phenyl)propanoic acid][2‑amino‑3‑(6-hydroxynaphthalen-2-yl)propanoic acid][Thp]EN[3Pal][Sar] (not fully specified (bridges); ends and bridges not checked; also: K3: lipidated lysine, lipid not given here) [SEQ ID NO: 89] registered its PBMC pSTAT3 IC50 at < 0.1 nM

The binder identified as K[Pen]ET[Trp(7-Me)]K(Ac)[Pen][AEF][2Nal(6-OH)][Thp]K(Ac)N[3Pal][Sar] (disulfide 2-7 (inferred); ends not checked) [SEQ ID NO: 134] registered its PBMC pSTAT3 IC50 at < 1 nM

src = patent US20240279281A1
